- Tested on: IP-10
- test_name: IP-10, mouse (Tables 1-3); note: test concentration or dose not given here
- Type: cell-based
- conditions: Table 3, R^1 series; Compound 1 = 100
For each of the compounds below, state its mouse IP-10.
Write no unit; give the number alone.

Problem: Let me know recorded mouse IP-10 for `O=C(CSc1nc2c([nH]c3ccccc32)c(=O)n1-c1ccccc1)NC1CCCCC1` , thanks.
Result: 100

Problem: // fetch mouse IP-10 given entry `O=C(CSc1nc2c([nH]c3ccccc32)c(=O)n1C1CCCCC1)NC1CCCCC1`
Result: 61

Problem: Hello, please tell me recorded mouse IP-10 for this one: `O=C(CSc1nc2c([nH]c3ccccc32)c(=O)n1-c1ccc(F)cc1)NC1CCCCC1`
Result: 72

###

- Tested on: IP-10
- test_name: IP-10, mouse (Tables 1-3); note: test concentration or dose not given here
- Type: cell-based
- conditions: Table 2, R^2 series; Compound 1 = 100
Cut-off 50 on mouse IP-10, inclusive. At or above means yes (1); below means no (0).

Problem: Does `O=C(CSc1nc2c([nH]c3ccccc32)c(=O)n1-c1ccccc1)NCc1ccco1` have a reported mouse IP-10 of at least 50?
Result: no (0)

Problem: Given the entry `Cc1cccc(NC(=O)CSc2nc3c([nH]c4ccccc43)c(=O)n2-c2ccccc2)c1` , answer whether its mouse IP-10 meets or surpasses 50.
Result: yes (1)

Problem: Assess whether reported mouse IP-10 for `O=C(CSc1nc2c([nH]c3ccccc32)c(=O)n1-c1ccccc1)NC1CCCCC1` sits at 50 or higher.
Result: yes (1)

Problem: Is reported mouse IP-10 greater than or equal to 50 here: `O=C(CSc1nc2c([nH]c3ccccc32)c(=O)n1-c1ccccc1)Nc1ccc2ccccc2c1`
Result: no (0)

Problem: Please check the record `O=C(CSc1nc2c([nH]c3ccccc32)c(=O)n1-c1ccccc1)Nc1ccccc1` and state if its mouse IP-10 is at or above 50.
Result: no (0)

Problem: Hi team, for `O=C(CSc1nc2c([nH]c3ccccc32)c(=O)n1-c1ccccc1)NC1CCCCCC1` , is the recorded mouse IP-10 at or above 50?
Result: yes (1)

Problem: Quick check, mouse IP-10 >= 50? `CC(C)CCNC(=O)CSc1nc2c([nH]c3ccccc32)c(=O)n1-c1ccccc1`
Result: yes (1)

Problem: Is mouse IP-10 for O=C(CSc1nc2c([nH]c3ccccc32)c(=O)n1-c1ccccc1)NCC1CCCO1 (stereo not drawn) at or above 50?
Result: yes (1)

Problem: hey, is mouse IP-10 for this one >= 50? `O=C(CSc1nc2c([nH]c3ccccc32)c(=O)n1-c1ccccc1)NC1CCC1`
Result: yes (1)

Problem: Given the entry `CCC(CC)NC(=O)CSc1nc2c([nH]c3ccccc32)c(=O)n1-c1ccccc1` , answer whether its mouse IP-10 meets or surpasses 50.
Result: no (0)

Problem: API: above_or_equal(metric=mouse IP-10, cutoff=50) for item `O=C(CSc1nc2c([nH]c3ccccc32)c(=O)n1-c1ccccc1)Nc1ccccc1F`
Result: yes (1)

Problem: Threshold query (mouse IP-10 >= 50) on `O=C(CSc1nc2c([nH]c3ccccc32)c(=O)n1-c1ccccc1)NC1CCCC1`
Result: yes (1)

Problem: Has `O=C(CSc1nc2c([nH]c3ccccc32)c(=O)n1-c1ccccc1)NC1CCCCCCC1` a recorded mouse IP-10 greater than or equal to 50?
Result: yes (1)

Problem: Quick check, mouse IP-10 >= 50? `CC(C)(C)CCNC(=O)CSc1nc2c([nH]c3ccccc32)c(=O)n1-c1ccccc1`
Result: yes (1)

Problem: Reported mouse IP-10 at or above 50? `CC(C)CNC(=O)CSc1nc2c([nH]c3ccccc32)c(=O)n1-c1ccccc1`
Result: yes (1)

###

- subject_of_test: TLR4 (Homo sapiens, UniProt O00206+Q9Y6Y9)
- Sequence (O00206 24-839): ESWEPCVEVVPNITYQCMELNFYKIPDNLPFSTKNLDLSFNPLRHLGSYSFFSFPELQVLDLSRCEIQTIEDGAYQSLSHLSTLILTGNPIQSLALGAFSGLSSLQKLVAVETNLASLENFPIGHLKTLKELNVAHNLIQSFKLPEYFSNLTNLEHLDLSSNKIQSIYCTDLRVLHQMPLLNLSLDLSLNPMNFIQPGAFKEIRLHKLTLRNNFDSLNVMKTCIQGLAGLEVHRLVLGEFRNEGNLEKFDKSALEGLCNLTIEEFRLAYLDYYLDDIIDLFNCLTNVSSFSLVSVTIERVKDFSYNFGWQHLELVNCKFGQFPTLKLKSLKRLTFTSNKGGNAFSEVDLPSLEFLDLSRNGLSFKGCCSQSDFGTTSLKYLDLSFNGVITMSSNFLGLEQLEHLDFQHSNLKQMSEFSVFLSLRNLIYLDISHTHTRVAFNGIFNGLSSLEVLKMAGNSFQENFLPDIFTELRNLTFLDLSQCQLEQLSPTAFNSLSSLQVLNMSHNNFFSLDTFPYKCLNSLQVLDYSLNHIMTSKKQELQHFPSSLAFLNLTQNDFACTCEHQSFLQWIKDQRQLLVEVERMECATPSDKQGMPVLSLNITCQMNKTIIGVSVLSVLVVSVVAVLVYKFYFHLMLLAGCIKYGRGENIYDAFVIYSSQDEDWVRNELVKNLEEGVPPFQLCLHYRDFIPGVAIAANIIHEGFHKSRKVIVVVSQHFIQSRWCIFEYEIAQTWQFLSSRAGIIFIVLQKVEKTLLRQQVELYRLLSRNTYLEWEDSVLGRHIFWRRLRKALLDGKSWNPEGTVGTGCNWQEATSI
- Sequence (Q9Y6Y9 17-160 limits assumed): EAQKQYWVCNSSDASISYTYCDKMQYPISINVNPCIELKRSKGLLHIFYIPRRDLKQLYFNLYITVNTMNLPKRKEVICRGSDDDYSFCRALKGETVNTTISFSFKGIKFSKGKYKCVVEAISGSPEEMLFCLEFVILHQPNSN
- test_name: TLR4, human (Tables 1-3); note: test concentration or dose not given here
- Type: cell-based
- conditions: Table 3, R^1 series; Compound 1 = 100
Could you please report measured human TLR4 for the items listed next?
Lab note: record the figure alone, no unit after it.

Problem: Recall the reported human TLR4 of `O=C(CSc1nc2c([nH]c3ccccc32)c(=O)n1CCc1ccccc1)NC1CCCCC1` on TLR4 (Homo sapiens, UniProt O00206+Q9Y6Y9) and write it down.
Result: 1

Problem: Write down measured human TLR4 (TLR4 (Homo sapiens, UniProt O00206+Q9Y6Y9)) for this compound. `O=C(CSc1nc2c([nH]c3ccccc32)c(=O)n1-c1ccc2ccccc2c1)NC1CCCCC1`
Result: 3

Problem: State human TLR4 on TLR4 (Homo sapiens, UniProt O00206+Q9Y6Y9). Entry: `O=C(CSc1nc2c([nH]c3ccccc32)c(=O)n1-c1ccccc1)NC1CCCCC1`
Result: 100

Problem: Param request: human TLR4 | system TLR4 (Homo sapiens, UniProt O00206+Q9Y6Y9) | item `Cc1ccc(-n2c(SCC(=O)NC3CCCCC3)nc3c([nH]c4ccccc43)c2=O)cc1`
Result: 2

Problem: Report human TLR4 on TLR4 (Homo sapiens, UniProt O00206+Q9Y6Y9) for this entry: `O=C(CSc1nc2c([nH]c3ccccc32)c(=O)n1C1CCCCC1)NC1CCCCC1`
Result: 40

Problem: Write down the reported human TLR4 (system: TLR4 (Homo sapiens, UniProt O00206+Q9Y6Y9)) of `O=C(CSc1nc2c([nH]c3ccccc32)c(=O)n1-c1ccc(F)cc1)NC1CCCCC1`
Result: 51

###

- Test system: IP-10
- test_name: IP-10, mouse (Tables 1-3); note: test concentration or dose not given here
- Assay type: cell-based
- conditions: Table 2, R^2 series; Compound 1 = 100
Please respond with reported mouse IP-10 for every item in the list.
Respond with the number and no other words.

Problem: Please report the measured mouse IP-10 for `O=C(CSc1nc2c([nH]c3ccccc32)c(=O)n1-c1ccccc1)Nc1ccc(F)cc1` tested on IP-10.
Result: 70

Problem: State, for IP-10, measured mouse IP-10 of the compound listed here: CCCC(C)NC(=O)CSc1nc2c([nH]c3ccccc32)c(=O)n1-c1ccccc1 (centres unmarked)
Result: 55

Problem: Recall the reported mouse IP-10 of `O=C(CSc1nc2c([nH]c3ccccc32)c(=O)n1-c1ccccc1)Nc1cccc(F)c1` when tested on IP-10.
Result: 45

Problem: # return mouse IP-10 for CCC(C)CCNC(=O)CSc1nc2c([nH]c3ccccc32)c(=O)n1-c1ccccc1 (centres unmarked) , test system: IP-10
Result: 45

###

- subject_of_test: TLR4 (Mus musculus, UniProt Q9JHF9+Q9QUK6)
- Sequence (Q9QUK6 26-835): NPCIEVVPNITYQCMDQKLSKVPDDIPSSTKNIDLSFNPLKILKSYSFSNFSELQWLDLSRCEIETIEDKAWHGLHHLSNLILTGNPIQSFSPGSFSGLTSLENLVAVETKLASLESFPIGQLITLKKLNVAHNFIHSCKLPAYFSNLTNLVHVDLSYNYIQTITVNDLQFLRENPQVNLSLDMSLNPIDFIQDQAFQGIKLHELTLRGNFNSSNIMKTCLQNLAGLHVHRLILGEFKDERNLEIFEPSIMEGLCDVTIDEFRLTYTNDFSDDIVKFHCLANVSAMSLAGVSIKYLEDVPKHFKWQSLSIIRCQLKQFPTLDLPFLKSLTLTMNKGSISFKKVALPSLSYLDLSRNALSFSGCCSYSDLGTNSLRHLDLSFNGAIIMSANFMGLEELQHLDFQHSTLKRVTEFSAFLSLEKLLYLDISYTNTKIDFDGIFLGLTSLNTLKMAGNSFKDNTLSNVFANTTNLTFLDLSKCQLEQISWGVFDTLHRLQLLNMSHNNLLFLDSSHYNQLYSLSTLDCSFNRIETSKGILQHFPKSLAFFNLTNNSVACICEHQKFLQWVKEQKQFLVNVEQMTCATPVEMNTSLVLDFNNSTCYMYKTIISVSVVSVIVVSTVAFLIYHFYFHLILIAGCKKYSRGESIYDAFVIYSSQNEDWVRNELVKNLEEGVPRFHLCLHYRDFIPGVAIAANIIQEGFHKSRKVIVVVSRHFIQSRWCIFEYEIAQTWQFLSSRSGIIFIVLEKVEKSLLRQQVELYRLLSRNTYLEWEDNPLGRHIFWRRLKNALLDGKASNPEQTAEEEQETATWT
- Sequence (Q9JHF9 19-160): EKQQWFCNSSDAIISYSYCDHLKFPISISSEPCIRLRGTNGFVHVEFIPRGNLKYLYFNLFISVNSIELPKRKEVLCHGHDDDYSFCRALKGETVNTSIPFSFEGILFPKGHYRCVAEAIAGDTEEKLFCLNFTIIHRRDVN
- test_name: TLR4, mouse (Tables 1-3); note: test concentration or dose not given here
- Type: cell-based
- conditions: Table 2, R^2 series; Compound 1 = 100
mouse TLR4 strictly less than 20 = 1.0. Otherwise 0.0.

Problem: Item `O=C(CSc1nc2c([nH]c3ccccc32)c(=O)n1-c1ccccc1)Nc1nccs1` : mouse TLR4 beneath 20, strictly?
Result: 1.0

Problem: is_below(mouse TLR4, 20) for `CCNC(=O)CSc1nc2c([nH]c3ccccc32)c(=O)n1-c1ccccc1` ?
Result: 1.0

Problem: Report whether reported mouse TLR4 is lower than 20 (strictly) for `CC(C)(C)CCNC(=O)CSc1nc2c([nH]c3ccccc32)c(=O)n1-c1ccccc1`
Result: 0.0

Problem: Is it true that mouse TLR4 reported for `CC(C)CCNC(=O)CSc1nc2c([nH]c3ccccc32)c(=O)n1-c1ccccc1` is less than 20?
Result: 0.0

Problem: Take the compound O=C(CSc1nc2c([nH]c3ccccc32)c(=O)n1-c1ccccc1)NCC1CCCO1 (stereo not drawn) and say whether its mouse TLR4 is less than 20.
Result: 0.0

Problem: Could you please tell me whether mouse TLR4 recorded for `O=C(CSc1nc2c([nH]c3ccccc32)c(=O)n1-c1ccccc1)Nc1cccc(F)c1` is less than 20?
Result: 1.0
